B1: tRNA (parent)
chain: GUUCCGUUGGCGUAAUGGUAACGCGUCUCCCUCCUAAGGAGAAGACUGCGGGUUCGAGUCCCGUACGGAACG

Variants of: B1
Assay: yeast fitness relative to wild type (ratio to wild type); higher = fitter; tRNA-Arg(CCU), competitive growth, 37 C, YPD
Fewer inactive variants are shown than the library holds.
Overview of recorded yeast fitness for various variants

GUUCCAUUGGCGUAAGGGUAGCGCGUCUCCCUCCUAAGGGGUAGACUGCGGGUUCGAGUCCCGUACCGAACG [G6A U16G A21G A40G A42U G67C]	≤ 0.5

Request the reported yeast fitness associated with GUUCCGUUGGCGUAAUGGUAACGCGUCUCCGUCCUAGCGAGAGGACUGCGGGUUCGACUCCCGUACGGAACG [C31G A37G G38C A43G G58C]
≤ 0.5

Request the reported yeast fitness associated with GUUCCGUUGGCGUAAUGGUAACGCGUCUCCCUCCUAACGAGAAGUCUGCGGGUUCGAGUCCCCUAGGGAACG [G38C A45U G63C C66G]
≤ 0.5

Request the reported yeast fitness associated with GUUCCGUUGGCGUAAUAGUAACGCGUGUCCCUCCUAAGGAGAAGAGUGCGGGUUCGAGUCCCGUGCGGAACG [G17A C27G C46G A65G]
≤ 0.5

Request the reported yeast fitness associated with GUUCCGUUGGCGUAAUCGUAACGAGUCUCCCUCCUAAGGAGAAGACAGCGGGUUCGAGUCCCGUAUGGUACG [G17C C24A U47A C66U A69U]
≤ 0.5

Request the reported yeast fitness associated with GUUCCGUUGGCGUAAUGGUAACGCGUCUCCCUCCUAAGGAGAAGAAUGCGGGUUCGGGUCCCGUACGAAACG [C46A A57G G68A]
0.605

Request the reported yeast fitness associated with GUUCGGUUGGCGUAAUGGUAACGCGUCUCCCUCCUAAGGAGAAGACUGCGGGUUCGAGUCCCCUACGGAACG [C5G G63C]
0.626

Request the reported yeast fitness associated with GUUCCAUUGGCGUAAUGGUAACGUGGCUCCCUCAUAAGGAGAAGAGUGCGGGUUCAAGUCCCGUAUGGAACG [G6A C24U U26G C34A C46G G56A C66U]
≤ 0.5

Request the reported yeast fitness associated with GUUCCGUUGGCGUAAUGGUAACGCGUCUCCCUCCUAAGGAGAAGACUGAGGGUUCGAGACCCGUACGGAACG [C49A U59A]
0.681

Request the reported yeast fitness associated with GUUCCGUUGGCGUAACGGUAAGGCGUCUCCCUCCUAAGGAGAAGACUGCGGGUUCGAGUCCCGUAUGGAACG [U16C C22G C66U]
0.721

Request the reported yeast fitness associated with GUUCCGUUGACGUAAUGGUAACGCGUCUCCCUCCUAAGGAGAAGACUGCGGGUUCAAGUCCCGUACGGUACG [G10A G56A A69U]
0.601

Request the reported yeast fitness associated with GUUCCGUUGGCGUAAUGGUAACGCGUCUCGCUCCUUAGGAGAAGACUGCGGGUUCGAGUCCCGUACGGAACG [C30G A36U]
0.538

Request the reported yeast fitness associated with GUUCCGUUGGCGUAAUGGUAACGCGUCUCCCUCCUACGGGGAAGACUGCGGCUUCGAGCCCCGUUCGGAACG [A37C A40G G52C U59C A65U]
≤ 0.5

Request the reported yeast fitness associated with GUUCCGUUGGAGUAAUGGCAACGCGUCUCCCUCCUAAGGAGAAGACUGCGGGUUCGAGUUCCGUACGGAACG [C11A U19C C60U]
≤ 0.5

Request the reported yeast fitness associated with GUUCCGUUGGCGUAAUGGUAACGCGUCUCCCUCCUAAGGAGAAGACUGCGGGUUCGAGUCCCGUAAGGCACG [C66A A69C]
0.665

Request the reported yeast fitness associated with GAUCCGUUGGCGUAAUGGUAACGCGUCCCCCUCCUAAGGACAAGACUGCGGGUACGAGUCCCGUACUGAACG [U2A U28C G41C U54A G67U]
≤ 0.5

Request the reported yeast fitness associated with GUUCCGUUGCCGUAAUGGCAACGCGUCUCCCUGCUAAGGAGAAGACUGCGGGUUCGAGUCCCGUACGGAACG [G10C U19C C33G]
0.769

Request the reported yeast fitness associated with GUUCCGCUGGCGUAAUGGUAACGCGUCUCCCUCCUAAGGAGAAGACUGCGGGUUCGAGUCCCGUACGGCACG [U7C A69C]
0.921

Request the reported yeast fitness associated with GUUCCGUUGGCGUAAUGGUAACGCGUCUCCCUCCUAAGGAGAAGACUGUGGGUUCGAGUACCGUACGGAGCG [C49U C60A A70G]
0.546

Request the reported yeast fitness associated with GUUCCGAUGGCGUAAUGGUAACGCGUCUCCCUCCUUAGGAGAAGACUGCGGGUUCGAGUACCGCACGGAACG [U7A A36U C60A U64C]
≤ 0.5

Request the reported yeast fitness associated with GUUCUGUUGGCGUAAUGGUAACGCGUGUCCCUCCUAAGGAGAAGACUGCGGGUUCGAGUACCGUACGGAACG [C5U C27G C60A]
≤ 0.5

Request the reported yeast fitness associated with GUUCCGUUGGCGUAAUGGUAACGCGUGUCCCUCCUGAGGAGAAGACUGCGGCUUCGAGUCCCGUACGGAACG [C27G A36G G52C]
≤ 0.5

Request the reported yeast fitness associated with GUUCCGUUGGCGUAAUGGUAACGCGUCUCCCUCCUUAGGAGAAGGCUGCGGGUUCGAGUCCCGUACGGAACG [A36U A45G]
0.606

Request the reported yeast fitness associated with GUUCCGUUGGCGUAGUGGCAACGCGUCUCCCUCCUAUGGAGAAGACUGUGAGUUCGAGUACCGUACGGAACG [A15G U19C A37U C49U G51A C60A]
≤ 0.5

Request the reported yeast fitness associated with GUUCCGUUGGCGUGAUGGUAACGCGUCUCUCUCCUAAGGAGAAGAUUGCAGGUUCGAGUCCCGUACGGGACG [A14G C30U C46U G50A A69G]
0.704

Request the reported yeast fitness associated with GUUCCGUUGGCGUAAUGGUAACGCGUCUCCCUCCUAAGGAGAAGACUGAGGGUUCGAGUGCCGUACGGAACG [C49A C60G]
0.638
